# method-notes: Mouse blood and tissue PK (LC/MS-MS)
# Format: in vivo
# measurement-conditions: BALB/c nude, mouse, ear skin, oral, 50 mg/kg, sheet Ear Skin, model Capan-2, study Capan-2 #3_PHA 2023, 50 mg/kg, 2h; read-out: RMC-6236 (nM) Tumor
measured-attribute: concentration at 2 h (nM)
State just the number; it will be interpreted in nM.

**Q:** Consider the compound CCn1c(-c2cc(N3CCN(C)CC3)cnc2[C@H](C)OC)c2c3cc(ccc31)-c1csc(n1)C[C@H](NC(=O)[C@H]1C[C@@H]1C)C(=O)N1CCC[C@H](N1)C(=O)OCC(C)(C)C2 [RMC-6236] and give its measured concentration at 2 h.
**A:** 5540

###

# method-notes: Mouse blood and tissue PK (LC/MS-MS)
# Type: in vivo
# measurement-conditions: mouse, tumor, oral, 40 mg/kg, NCI-H441 xenograft tumor, study NCI-H441#8, 40 mg/kg, 8h; read-out: RMC-6236 (nM) Tumor
measured-attribute: concentration at 8 h (nM)
Respond numerically; units are nM and should not be typed.

**Q:** Requested field: concentration at 8 h. Item: CCn1c(-c2cc(N3CCN(C)CC3)cnc2[C@H](C)OC)c2c3cc(ccc31)-c1csc(n1)C[C@H](NC(=O)[C@H]1C[C@@H]1C)C(=O)N1CCC[C@H](N1)C(=O)OCC(C)(C)C2
**A:** 2820

###

# method-notes: Mouse blood and tissue PK (LC/MS-MS)
# Format: in vivo
# measurement-conditions: mouse, whole blood, po, 3 mg/kg, NCI-H441 (3 mg/kg), single dose
measured-attribute: Cmax (ng/mL)
Reply numerically in ng/mL, unit not repeated.

**Q:** Suppose we examine the compound CCn1c(-c2cc(N3CCN(C)CC3)cnc2[C@H](C)OC)c2c3cc(ccc31)-c1csc(n1)C[C@H](NC(=O)[C@H]1C[C@@H]1C)C(=O)N1CCC[C@H](N1)C(=O)OCC(C)(C)C2 [RMC-6236] ; what Cmax value has been reported?
**A:** 219

###

# method-notes: Mouse blood and tissue PK (LC/MS-MS)
# Format: in vivo
# measurement-conditions: mouse, whole blood, oral, 50 mg/kg, Naïve Mice #1 (50 mg/kg), single dose
measured-attribute: Cmax (ng/mL)
Entry rule: numbers only, all in ng/mL.

**Q:** Look up Cmax for this compound: CCn1c(-c2cc(N3CCN(C)CC3)cnc2[C@H](C)OC)c2c3cc(ccc31)-c1csc(n1)C[C@H](NC(=O)[C@H]1C[C@@H]1C)C(=O)N1CCC[C@H](N1)C(=O)OCC(C)(C)C2
**A:** 2960

###

# method-notes: Mouse blood and tissue PK (LC/MS-MS)
# Assay type: in vivo
# measurement-conditions: mouse, tumor, oral, 50 mg/kg, HPAC #3; 50 mg/kg, 8h; individual animals; read-out: RMC-6236 (nM) Tumor
measured-attribute: concentration at 8 h (nM)
Numbers only here, please. The scale is nM.

**Q:** Please give the measured concentration at 8 h for this compound: CCn1c(-c2cc(N3CCN(C)CC3)cnc2[C@H](C)OC)c2c3cc(ccc31)-c1csc(n1)C[C@H](NC(=O)[C@H]1C[C@@H]1C)C(=O)N1CCC[C@H](N1)C(=O)OCC(C)(C)C2 [RMC-6236]
**A:** 6090

meta.source: paper PMC11149917
